These data points were gathered from ChEMBL document CHEMBL1139103.

# experimental.system: Prostaglandin E2 receptor EP1 subtype (Homo sapiens)
# Sequence (P34995 whole entry): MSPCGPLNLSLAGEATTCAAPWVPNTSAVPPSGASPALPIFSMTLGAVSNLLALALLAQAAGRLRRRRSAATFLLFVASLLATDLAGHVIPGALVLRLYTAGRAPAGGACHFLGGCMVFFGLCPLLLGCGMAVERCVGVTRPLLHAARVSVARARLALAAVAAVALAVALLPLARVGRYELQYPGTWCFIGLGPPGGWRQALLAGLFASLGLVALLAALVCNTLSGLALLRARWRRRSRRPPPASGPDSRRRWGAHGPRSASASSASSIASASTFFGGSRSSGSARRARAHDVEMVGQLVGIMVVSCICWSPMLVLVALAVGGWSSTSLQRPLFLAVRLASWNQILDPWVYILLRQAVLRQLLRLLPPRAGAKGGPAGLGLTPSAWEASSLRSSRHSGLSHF
# procedure.summary: Antagonist activity at human EP1 expressed in CHOK1 cells receptor assessed as inhibition of intracellular calcium mobilization by FLIPR assay
# Assay type: functional, cell-based, CHO-K1
property.name: Ki (nM)

Example results:
compound.structure.string	Ki [nM]
COc1ccc(CCNC(=O)CN(c2ccccc2C)S(=O)(=O)c2ccc(C)cc2)cc1OC	38.9
CCc1ccccc1N(CC(=O)NCc1ccccc1OC)S(=O)(=O)c1ccc(C)cc1	1070
Cc1ccc(S(=O)(=O)N(CC(=O)NCCc2ccc(Cl)cc2)c2ccccc2C)cc1	661

I. CCc1ccccc1N(CC(=O)NCCc1ccc(OC)c(OC)c1)S(=O)(=O)c1ccc(C(F)(F)F)cc1
II. Cc1ccc(S(=O)(=O)N(CC(=O)NCCc2ccc(NS(C)(=O)=O)cc2)c2ccccc2C)cc1
input: API: POST /compare with I and II ; response names the item with higher Ki. // respond with label for picked entry
output: II

A. CCc1ccccc1N(CC(=O)NCCc1ccc(OC)c(OC)c1)S(=O)(=O)c1cccc(C#N)c1
B. CCc1ccccc1N(CC(=O)NCc1ccccc1F)S(=O)(=O)c1ccc(C)cc1
input: API: POST /compare with A and B ; response names the item with higher Ki. // respond with label for picked entry
output: A

P. COc1ccc(CCNC(=O)CN(c2cccc(C)c2C)S(=O)(=O)c2ccc(C)cc2)cc1OC
Q. Cc1ccc(S(=O)(=O)N(CC(=O)NCCc2cccc(O)c2)c2ccccc2C)cc1
R. CNS(=O)(=O)c1cc(CCNC(=O)CN(c2ccccc2C)S(=O)(=O)c2ccc(C)cc2)ccc1O
S. COc1ccc(CCNC(=O)CN(c2cccc(Cl)c2)S(=O)(=O)c2ccc(C)cc2)cc1OC
input: Order the items by recorded Ki; the first position goes to the largest value. Reply format: the labels, ordered as requested.
output: Q, S, P, R
(Q: 204 nM, S: 61.7 nM, P: 12.9 nM, R: 3.72 nM)

---

# experimental.system: Prostaglandin E2 receptor EP1 subtype (Homo sapiens, UniProt P34995)
# procedure.summary: Antagonist activity at human EP1 expressed in CHOK1 cells receptor assessed as inhibition of intracellular calcium mobilization by FLIPR assay
# Type: functional, cell-based, CHO-K1
property.name: Ki (nM)

compound.structure.string	experimental.system	Ki (nM)
CCc1ccccc1N(CC(=O)NCc1ccc(Cl)cc1)S(=O)(=O)c1ccc(C)cc1	Prostaglandin E2 receptor EP1 subtype (Homo sapiens, UniProt P34995)	11.5

a. CCc1ccccc1N(CC(=O)NCc1ccccc1)S(=O)(=O)c1ccc(C)cc1
b. CCc1ccccc1N(CC(=O)NCCc1ccc(OC)c(OC)c1)S(=O)(=O)c1ccc(C)cc1
c. COc1ccc(CCNC(=O)CN(c2ccccc2C)S(=O)(=O)c2ccccc2)cc1OC
d. CCc1ccccc1N(CC(=O)NCc1cccc(OC)c1)S(=O)(=O)c1ccc(C)cc1
e. CCc1ccccc1N(CC(=O)NCc1ccc(OC)cc1)S(=O)(=O)c1ccc(C)cc1
input: rank_up(items): orders items by reported Ki in ascending numerical order. Reply format: the labels, ordered as requested.
output: b, e, d, a, c

---

# experimental.system: Prostaglandin E2 receptor EP1 subtype (Homo sapiens)
# procedure.summary: Antagonist activity at human EP1 expressed in CHOK1 cells receptor assessed as inhibition of intracellular calcium mobilization by FLIPR assay
# Format: functional, cell-based, CHO-K1
pKi: −log10 of the molar value.
property.name: pKi

compound.structure.string	pKi
CCc1ccccc1N(CC(=O)NCc1ccc(C(F)(F)F)cc1)S(=O)(=O)c1ccc(C)cc1	6.68

a. CCc1ccccc1N(CC(=O)NCCc1ccc(OC)c(OC)c1)S(=O)(=O)c1cccc(C)c1
b. CCc1ccccc1N(CC(=O)NCCc1ccc(OC)c(OC)c1)S(=O)(=O)c1ccccc1C
input: Please choose the item with the lower pKi value from this pair: a and b // respond with label for picked entry
output: a

---

# experimental.system: Prostaglandin E2 receptor EP1 subtype (Homo sapiens, UniProt P34995)
# Sequence (P34995 whole entry): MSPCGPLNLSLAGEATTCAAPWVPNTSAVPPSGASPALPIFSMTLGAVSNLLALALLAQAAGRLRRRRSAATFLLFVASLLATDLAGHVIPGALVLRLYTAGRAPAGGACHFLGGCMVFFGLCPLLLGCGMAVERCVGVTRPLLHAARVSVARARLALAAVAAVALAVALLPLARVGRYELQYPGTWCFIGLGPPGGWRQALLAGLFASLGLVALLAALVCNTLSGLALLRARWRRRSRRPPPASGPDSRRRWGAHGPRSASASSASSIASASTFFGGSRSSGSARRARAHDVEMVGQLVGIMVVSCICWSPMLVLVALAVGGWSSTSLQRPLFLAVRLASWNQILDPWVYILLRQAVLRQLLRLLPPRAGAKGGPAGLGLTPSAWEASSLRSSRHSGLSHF
# procedure.summary: Displacement of [3H]PGE2 from EP1 expressed in CHO cells
# Format: cell-based
pKi: −log10 of the molar value.
property.name: pKi

compound.structure.string	pKi
CCn1nccc1N(CC(=O)NCc1ccc(Cl)cc1)S(=O)(=O)c1ccc(C)cc1	6.80

I. Cc1ccc(S(=O)(=O)N(CC(=O)NCc2ccc(Cl)cc2)c2cccnc2C)cc1
II. CCc1ccccc1N(CC(=O)NCc1ccc(Cl)cc1)S(=O)(=O)c1ccc(C)cc1
input: API: POST /compare with I and II ; response names the item with higher pKi. // respond with label for picked entry
output: II

---

# experimental.system: Prostaglandin E2 receptor EP1 subtype (Homo sapiens)
# procedure.summary: Antagonist activity at human EP1 expressed in CHOK1 cells receptor assessed as inhibition of intracellular calcium mobilization by FLIPR assay
# Type: functional, cell-based, CHO-K1
property.name: Ki (nM)

compound.structure.string	experimental.system	unit.tag	Ki
COc1ccc(CCNC(=O)CN(c2cccc(Br)c2)S(=O)(=O)c2ccc(C)cc2)cc1OC	Prostaglandin E2 receptor EP1 subtype (Homo sapiens)	nM	34.7

A. CCc1ccccc1N(CC(=O)NCc1ccc(OC)c(OC)c1)S(=O)(=O)c1ccc(C)cc1
B. CCc1ccccc1N(CC(=O)NCCc1ccc(OC)c(OC)c1)S(=O)(=O)c1ccccc1Cl
C. COc1ccc(CCNC(=O)CN(c2ccc(Cl)cc2)S(=O)(=O)c2ccc(C)cc2)cc1OC
D. COc1ccc(CCNC(=O)CN(c2cccc(C(F)(F)F)c2)S(=O)(=O)c2ccc(C)cc2)cc1OC
input: Order the items by recorded Ki; the first position goes to the largest value. Reply format: the labels, ordered as requested.
output: B, C, A, D

---

# experimental.system: Prostaglandin E2 receptor EP1 subtype (Homo sapiens, UniProt P34995)
# procedure.summary: Antagonist activity at human EP1 expressed in CHOK1 cells receptor assessed as inhibition of intracellular calcium mobilization by FLIPR assay
# Type: functional, cell-based, CHO-K1
property.name: Ki (nM)

a. Cc1ccc(S(=O)(=O)N(CC(=O)NCc2ccc(Cl)cc2)c2ccnn2C)cc1
b. CCc1ccccc1N(CC(=O)NCCc1ccc(OC)c(OC)c1)S(=O)(=O)c1ccc(OC(F)(F)F)cc1
c. CCc1ccccc1N(CC(=O)NCCc1ccc(OC)c(OC)c1)S(=O)(=O)c1ccc(Br)cc1
input: List these items ordered by Ki, big to small. Reply format: the labels, ordered as requested.
output: a, b, c

---

# experimental.system: Prostaglandin E2 receptor EP1 subtype (Homo sapiens)
# procedure.summary: Displacement of [3H]PGE2 from EP1 expressed in CHO cells
# Format: cell-based
pKi: −log10 of the molar value.
property.name: pKi

compound.structure.string	pKi
CCc1ccccc1N(CC(=O)NCc1cccc(OC)c1)S(=O)(=O)c1ccc(C)cc1	7.10

A. CCc1ccccc1N(CC(=O)NCc1ccccc1)S(=O)(=O)c1ccc(C)cc1
B. Cc1ccc(S(=O)(=O)N(CC(=O)NCc2ccc(Cl)cc2)c2ccnn2C)cc1
input: API: POST /compare with A and B ; response names the item with higher pKi. // respond with label for picked entry
output: A
(A: 7.20, B: 6.40)
